method-description: Transport experiment in Caco-2 monolayers
Type: in vitro ADME, human
protocol-conditions: human, Caco-2
observation-type: Papp B→A at 150 min, 100 μM (×10⁻⁶ cm/s)

a. C[C@@H]1O[C@@H](OC[C@H]2O[C@@H](Oc3c(-c4ccc(OCCO)c(OCCO)c4)oc4cc(OCCO)cc(O)c4c3=O)[C@H](O)[C@@H](O)[C@@H]2O)[C@H](O)[C@H](O)[C@H]1O [Troxerutin, troxerutin]
b. CC(C)NCC(O)COc1cccc2ccccc12 (centres unmarked) [Propranolol]
c. CCC(=O)OCCOc1cc(O)c2c(=O)c(OC3OC(COC4OC(C)C(O)C(O)C4O)C(O)C(O)C3O)c(-c3ccc(OCCOC(=O)CC)c(OCCO)c3)oc2c1 (centres unmarked) [TDE]
*Q* Exam item: list the entries in increasing order of Papp B→A at 150 min, 100 μM. Sort and list the labels as requested.
*A* a, c, b
